B1: HSP90AB1 (parent)
chain: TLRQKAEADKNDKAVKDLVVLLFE

Variants of: B1
Assay: protein stability index of a GFP-peptide fusion (GPS, HEK-293T) (PSI 1-6); higher = more stable;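 note: lentivirally expressed fusions sorted by FACS into six bins by GFP to DsRed ratio, PSI derived from sequencing read proportions per bin multiplied by bin number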
Conditions: c terminus: a fixed tail appended
measured-attribute: protein stability index
Form field (numeric): enter value without unit.

Before answering, review these 3 worked examples.
{"columns": ["sequence-code", "protein stability index"],
 "data": [
  ["TLGQKAEADKNDKAVKDLVVLLFE [R3G]", 2.72],
  ["TLRQKAEADKNDKAVDDLVVLLFE [K16D]", 3.36],
  ["TLRQKAEADKNKKAVKDLVVLLFE [D12K]", 1.99]
]}

Tell me measured protein stability index for TLRQKAEADKNDEAVKDLVVLLFE [K13E] please.
3.39

Tell me measured protein stability index for TLRQKAEADKNWKAVKDLVVLLFE [D12W] please.
2.07

Tell me measured protein stability index for TLRQKAEADKNDKAVKDLVVLTFE [L22T] please.
3.96

Tell me measured protein stability index for TLRQKAEADKNDKAVKDLVVLLFG [E24G] please.
2.26

Tell me measured protein stability index for TLRQKAEADKNDKAVKDLVRLLFE [V20R] please.
2.88

Tell me measured protein stability index for TLRQKAEADKNDKAVKDIVVLLFE [L18I] please.
2.95

Tell me measured protein stability index for TLRQKAEADKNDKAVKDLVVLLME [F23M] please.
3.37

Tell me measured protein stability index for TLRQKAEADKNDKLVKDLVVLLFE [A14L] please.
2.63

Values from the supplement of paper PMC10567573
